Experiment: Human plasma protein binding, equilibrium dialysis
Details: 50%
value.type: recovery at 5 µM (%)
Give just the numeric value; % need not be written.

# compound, units, recovery at 5 µM
measured = [
    ("Cc1cccc(C(CCCN)(c2ccccc2)c2ccccc2)c1 [compound 30]", "%", 69.1),
    ("Cc1ccc(C(=O)N(CCCN)[C@@H](c2nc3cc(Cl)ccc3c(=O)n2Cc2ccccc2)C(C)C)cc1 [compound 54, ispinesib, reference compound]", "%", 50.6),
    ("Cc1cccc(C(CC[C@@H](N)C(=O)O)(c2ccccc2)c2ccccc2)c1 [(R)-29]", "%", 50.1),
]

Request: // returns reported recovery at 5 µM for input Cc1cccc(C(CC[C@H](N)C(=O)O)(c2ccccc2)c2ccccc2)c1 [(S)-29]
Result: 52.3
